# Target: sGC α1/β1 heterodimer (Homo sapiens, UniProt Q02108+Q02153)
# Construct: expressed in transfected cells; host or cells: CHO-K1 (clone #7, CHO-K1/sGC)
# Sequence (Q02108 whole entry): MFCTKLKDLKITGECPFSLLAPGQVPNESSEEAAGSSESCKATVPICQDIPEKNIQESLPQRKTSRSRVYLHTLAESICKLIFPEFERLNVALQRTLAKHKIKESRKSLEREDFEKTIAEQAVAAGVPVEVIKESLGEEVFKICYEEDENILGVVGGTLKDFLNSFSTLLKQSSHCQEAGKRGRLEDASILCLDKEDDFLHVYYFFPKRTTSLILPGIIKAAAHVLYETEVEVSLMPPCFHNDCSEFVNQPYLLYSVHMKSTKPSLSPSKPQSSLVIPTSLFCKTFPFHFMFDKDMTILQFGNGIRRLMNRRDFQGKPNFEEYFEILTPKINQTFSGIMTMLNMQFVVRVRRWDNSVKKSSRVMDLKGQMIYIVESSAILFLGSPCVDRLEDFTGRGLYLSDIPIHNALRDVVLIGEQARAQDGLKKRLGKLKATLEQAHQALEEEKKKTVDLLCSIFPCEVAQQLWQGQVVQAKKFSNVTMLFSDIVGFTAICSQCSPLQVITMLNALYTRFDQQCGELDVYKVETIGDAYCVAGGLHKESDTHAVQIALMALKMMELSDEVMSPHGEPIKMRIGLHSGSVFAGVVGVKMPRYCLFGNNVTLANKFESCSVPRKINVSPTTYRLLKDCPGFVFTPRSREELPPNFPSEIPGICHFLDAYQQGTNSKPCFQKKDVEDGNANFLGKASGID
# Sequence (Q02153 whole entry): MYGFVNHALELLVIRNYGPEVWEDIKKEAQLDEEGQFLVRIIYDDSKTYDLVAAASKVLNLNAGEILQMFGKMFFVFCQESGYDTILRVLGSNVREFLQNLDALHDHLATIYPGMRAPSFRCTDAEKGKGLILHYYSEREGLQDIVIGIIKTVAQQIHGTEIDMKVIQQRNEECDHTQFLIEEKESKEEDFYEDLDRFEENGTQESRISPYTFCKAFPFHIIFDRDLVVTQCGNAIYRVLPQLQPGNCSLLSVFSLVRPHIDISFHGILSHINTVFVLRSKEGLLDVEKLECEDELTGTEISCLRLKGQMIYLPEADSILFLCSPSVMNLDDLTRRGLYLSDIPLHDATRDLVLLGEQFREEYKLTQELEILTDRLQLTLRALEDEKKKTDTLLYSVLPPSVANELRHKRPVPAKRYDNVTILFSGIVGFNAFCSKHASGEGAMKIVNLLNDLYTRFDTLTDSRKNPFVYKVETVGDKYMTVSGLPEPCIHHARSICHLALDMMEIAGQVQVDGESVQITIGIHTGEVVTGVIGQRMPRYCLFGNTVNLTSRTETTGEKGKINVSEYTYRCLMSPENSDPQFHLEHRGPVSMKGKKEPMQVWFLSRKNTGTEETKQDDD
# Procedure Summary: Cell-Based sGC Functional Assay (CASA Assay), cGMP by HTRF in CHO-K1/sGC cells
# Condition Parameters: cGMP production, 1 hr at 37° C., 4P fit, presence or absence of 1 μM DETA-NO not given, read-out: IP (nM) (inflection point)
Test Readout: EC50 (nM)

Example compounds with recorded EC50:
- Compound: "CC1(C(=O)NC2CC2)C(=O)Nc2nc(-c3cn4ccnc4c(Cc4ccc(F)cc4)n3)ncc21 (single isomer, unassigned) [Example 67B]"
  EC50 / nM: 936
- Compound: "CC1(c2ccc(F)cn2)C(=O)Nc2nc(-c3cn4ccnc4c(CCCC(F)(F)F)n3)ncc21 (stereo not shown) [Example 66B]"
  EC50 / nM: 217
- Compound: "O=C1Nc2nc(-c3cn4ccnc4c(Cc4ccccc4F)n3)ncc2C1(C(=O)NC1CC1)C1CC1 (single isomer, unassigned) [Example 70B]"
  EC50 / nM: 61
- Compound: "CCCCc1nc(-c2ncc3c(n2)NC(=O)C3(c2ccc(OC(F)(F)F)cc2)C2CC2)cn2ccnc12 (stereo not shown) [Example 51A]"
  EC50 / nM: 56

(a) O=C1Nc2nc(-c3cn4ccnc4c(Cc4ccccc4F)n3)ncc2C1(C(=O)NC1CC1)C1CC1 (single isomer, unassigned) [Example 70A]
(b) CC1(c2ccc(F)cc2)C(=O)Nc2nc(-c3cn4ccnc4c(CCCC(F)(F)F)n3)ncc21 (stereo not shown) [Example 64A]
(c) O=C1Nc2nc(-c3cn4ccnc4c(CCCC(F)(F)F)n3)ncc2C1(c1ccc(Cl)c(F)c1)C1CC1 (stereo not shown) [Example 48A]
Ranking field: EC50; order: falling. Response format: the labels, sorted as the prompt asks. a, b, c
(a: 179 nM, b: 35 nM, c: 24 nM)
